Tested Target: HUVEC PGs
Assay: ACE of HUVEC PGs/GAGs through peptide
Assay type: binding, human
Setup Conditions: free GAG chains of total PGs; read-out: Kd for GAG chains liberated from core protein by borohydride reduction (BH)
pKd: −log10 of the molar value.
Reported Property: pKd

> print(dat)
                                  substance  recorded.result
1  (ARKKAAKA)4 (ARKKAAKAARKKAAKAARKKAAKAARKKAAKA; protein fragment) [XBBBXXBX tandem repeat peptide]            ~5.92

====

Assay: Affinity coelectrophoresis (ACE) of radiolabeled heparin through peptides
Type: binding, pig
Setup Conditions: ACE, low Mr heparin
Reported Property: heparin-binding affinity in words

> print(dat)
                                  substance  recorded.result
1  AKKARAAKKARAAKKARAAKKARAAKKARA [(AKKARA)5, XBBXBX tandem repeat peptide]           strong
2  AKKARAAKKARAAKKARAAKKARAAKKARAAKKARA [(AKKARA)6, XBBXBX tandem repeat peptide]           strong
3  AKKARAAKKARA [(AKKARA)2, XBBXBX tandem repeat peptide]             weak

====

Tested Target: HUVEC PGs
Assay: ACE of HUVEC PGs/GAGs through peptide
Format: binding, human
Setup Conditions: chondroitinase ABC digested PGs; read-out: Kd for HUVEC PGs devoid of CS GAGs via chondroitinase ABC (ABC) digestion
pKd: −log10 of the molar value.
Reported Property: pKd

> print(dat)
                                  substance  recorded.result
1  (ARKKAAKA)4 (ARKKAAKAARKKAAKAARKKAAKAARKKAAKA; protein fragment) [XBBBXXBX tandem repeat peptide]            ~6.52

====

Tested Target: HUVEC PGs
Assay: ACE of HUVEC PGs/GAGs through peptide
Format: binding, human
Setup Conditions: 35S-labeled secreted/total EC PGs; read-out: Kd for total (secreted) HUVEC PGs
Reported Property: Kd

> print(dat)
                                  substance  recorded.result
1  (ARKKAAKA)4 (ARKKAAKAARKKAAKAARKKAAKAARKKAAKA; protein fragment) [XBBBXXBX tandem repeat peptide]          ~300 nM

====

Tested Target: HUVEC PGs
Assay: ACE of HUVEC PGs/GAGs through peptide
Type: binding, human
Setup Conditions: heparatinase I digested PGs; read-out: Kd for HUVEC PGs devoid of HS GAGs via heparatinase I digestion (H)
Reported Property: Kd

> print(dat)
                                  substance  recorded.result
1  (ARKKAAKA)4 (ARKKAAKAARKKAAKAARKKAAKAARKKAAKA; protein fragment) [XBBBXXBX tandem repeat peptide]          ~300 nM

====

System: unfractionated heparin
Assay: Reversal of anti-Factor Xa activity in vitro (Stachrom Heparin chromogenic assay), unfractionated heparin
Assay type: biochemical, human
Setup Conditions: peptide 0.6 mg/ml in plasma; 0.5 U/ml anti-Factor Xa activity
This section presents substances with their documented Percent Reversal of anti-Factor Xa Activity, Heparin (unfractionated) values.
Reported Property: Percent Reversal of anti-Factor Xa Activity, Heparin (unfractionated)

> print(dat)
                                   substance  recorded.result
 1                           YPTQRARYQWVRCNP              90%
 2  AKKARAAKKARA [(AKKARA)2, XBBXBX tandem repeat peptide]            67.0%
 3  (ARRRAARA)3 [XBBBXXBX tandem repeat peptide]            57.5%
 4  AKKARAAKKARAAKKARAAKKARAAKKARAAKKARA [(AKKARA)6, XBBXBX tandem repeat peptide]              93%
 5                  ARKKAAKAARKKPAKAARKKAAKA            57.5%
 6  (ARKKAAKA)4 (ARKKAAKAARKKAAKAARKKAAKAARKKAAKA; protein fragment) [XBBBXXBX tandem repeat peptide]            87.5%
 7  AKKARAAKKARAAKKARAAKKARA [(AKKARA)4, XBBXBX tandem repeat peptide]              99%
 8  YPARRARYQWVRAKP [murine serglycin, cysteine replaced with alanine]            25.0%
 9  (ARKKPAKA)3 (ARKKPAKAARKKPAKAARKKPAKA; protein fragment) [proline in each tandem repeat in place of an alanine]            99.0%
10                           YPARRARYQWVRCKP            77.0%
11  (ARKKAAKA)5 (ARKKAAKAARKKAAKAARKKAAKAARKKAAKAARKKAAKA; protein fragment) [XBBBXXBX tandem repeat peptide]            94.5%
12  (AKAAKKRA)3 (AKAAKKRAAKAAKKRAAKAAKKRA; protein fragment) [XBBBXXBX tandem repeat peptide, reversed orientation]            94.0%
